I would appreciate it if you labelled entries 1 when logP is 0.9 or higher, otherwise 0.

Does the reported logP for `c1ccc2c(c1)OCCOCCOCCOCCOCCOCCOCCOCCOCCOCCO2` fall at or above the 0.9 mark? 0

Please tell me: is the compound `COCCOCCOc1ccc(OCCOCCOC)cc1` at or over 0.9 in terms of logP? 0

Is logP for `COCCOCCOc1cccc(OCCOCCOC)c1` at or above 0.9? 0

Is logP at least 0.9? Consider `c1ccc2c(c1)OCCOCCOCCOCCOCCOCCOc1ccccc1OCCO2` 1

Does logP meet or surpass 0.9 for `c1ccc2c(c1)OCCOCCOCCOCCOCCOCCOCCO2` ? 0

---

Provide the recorded logP for the entries that follow.
Just the number, please.

logP lookup needed for `COCCOCCOc1ccccc1OCCOCCOC` , thanks. 0.76

Report logP for `c1ccc2c(c1)OCCOCCOCCOCCOCCOCCO2` please. 0.57

Query (compound): `c1ccc2c(c1)OCCOCCOCCOCCOCCOCCOc1ccccc1OCCOCCOCCO2` ; field requested: logP 1.45

What value of measured logP is listed for `c1ccc2c(c1)OCCOCCOc1ccccc1OCCOCCO2` ? 2.2

Numbers sourced from the OPERA property sets (Mansouri et al. 2018).
